- experimentNotes: Determination of SQR solubility in oils, surfactants and co-surfactants
- Format: physicochemical
- recordedConditions: ethanol
Counter-ions that a name gives are not always drawn.
measurementLabel: solubility at 72 h (mg/mL)

>>> val("CC(C)(C)NC(=O)[C@@H]1C[C@@H]2CCCC[C@@H]2CN1C[C@@H](O)[C@H](Cc1ccccc1)NC(=O)[C@H](CC(N)=O)NC(=O)c1ccc2ccccc2n1 [SQR, Saquinavir mesylate]")
126
